Exercise: state measured MIC for each of the compounds provided.
system: Salmonella typhimurium; assay: Antibacterial activity against Salmonella typhimurium ATCC 14028 measured after 24 hrs; format: functional, Salmonella enterica subsp. enterica serovar Typhimurium; details: Salmonella enterica, ATCC 14028, 24 h
Where a SMILES comes first, the peptide text is derived from it.

compound | experimental-value
CC[C@H](C)[C@@H]1NC(=O)[C@H](C)NC(=O)[C@H](CC[S+](C)[O-])NC(=O)[C@H](C)NC(=O)[C@H](CC(N)=O)NC(=O)[C@H](Cc2ccccc2)NC(=O)[C@@H]2CCCN2C1=O (some centres not stated) (HELM PEPTIDE1{A.I.P.F.N.A.[CS(=O)CC[C@H](N[*:1])C(=O)[*:2]]}$PEPTIDE1,PEPTIDE1,1:R1-7:R2$$$V2.0) | > 128 µM

Turning now to a further record.
MIC for CC[C@H](C)[C@@H]1NC(=O)[C@@H]2CCCN2C(=O)[C@@H]2CCCN2C(=O)[C@H]([C@@H](C)CC)NC(=O)[C@H](Cc2ccc(O)cc2)NC(=O)[C@@H]2CCCN2C(=O)[C@@H]2CCCN2C(=O)[C@H](CC(C)C)NC(=O)[C@H](C(C)C)NC(=O)[C@H](Cc2ccccc2)NC1=O (HELM PEPTIDE1{F.V.L.P.P.Y.I.P.P.I}$PEPTIDE1,PEPTIDE1,1:R1-10:R2$$$V2.0) is > 128 µM

====

Exercise: state measured IC50 for each of the compounds provided.
test system: MDA-MB-231; assay: Cytotoxicity against human MDA-MB-231 cells after 72 hrs by sulforhodamine B assay; format: functional, cell-based; conditions: Homo sapiens, MDA-MB-231, 72 h
Where a SMILES comes first, the peptide text is derived from it.

compound | parameter-measured | experimental-value
CC[C@H](C)[C@@H]1NC(=O)[C@H](C)NC(=O)[C@H](CC(C)C)NC(=O)[C@@H]2CCCN2C(=O)[C@H](CC(=O)O)NC(=O)[C@H](Cc2ccc(O)cc2)NC(=O)[C@@H]2CCCN2C1=O (HELM PEPTIDE1{A.I.P.Y.D.P.L}$PEPTIDE1,PEPTIDE1,1:R1-7:R2$$$V2.0) | IC50 | > 50 µM
CC(C)C[C@@H]1NC(=O)[C@H](CO)NC(=O)[C@@H]2CCCN2C(=O)[C@H](Cc2ccc(O)cc2)NC(=O)[C@H](Cc2ccc(O)cc2)NC(=O)[C@@H]2CCCN2C(=O)[C@H](Cc2ccc(O)cc2)NC1=O (HELM PEPTIDE1{L.Y.P.Y.Y.P.S}$PEPTIDE1,PEPTIDE1,1:R1-7:R2$$$V2.0) | IC50 | > 50 µM

IC50 for C[C@@H]1NC(=O)[C@H]([C@@H](C)O)NC(=O)[C@H](Cc2ccc(O)cc2)NC(=O)[C@@H]2CCCN2C(=O)[C@H](Cc2ccc(O)cc2)NC(=O)[C@H](CCCNC(=N)N)NC(=O)[C@@H]2CCCN2C(=O)[C@H](CC(N)=O)NC1=O [CYCLONELLIN] (HELM PEPTIDE1{A.N.P.R.Y.P.Y.T}$PEPTIDE1,PEPTIDE1,1:R1-8:R2$$$V2.0) is > 50 µM
